Catalogue of CC50 at 72 h values
- test: Cytotoxicity against human H1HeLa cells assessed as decrease in cell viability after 3 days by MTT assay
- Assay type: cell-based, H1-HeLa
Unit µM implied. Number only.

In the examples that follow, each entry is paired with its recorded CC50 at 72 h.
| smiles text | measured number |
| --- | --- |
| CNC(=O)c1cc(Oc2ccc3c(C)c(C(=O)OC(C)C)n(C)c3c2)ccn1 | 11.2 |
| CNC(=O)c1cc(Oc2ccc3cc(C(=O)OC(C)C)sc3c2)ccn1 | 45.7 |
| CNC(=O)c1cc(Oc2ccc3c(C)c(C(=O)N(C)C)sc3c2)ccn1 | 42.5 |
| CCOC(=O)c1sc2cc(Oc3ccnc(C(=O)NC)c3)ccc2c1CC | 35.2 |

**Q:** What value of measured CC50 at 72 h is listed for CNC(=O)c1cc(Oc2ccc3c(C)c(C(=O)OCc4ccccc4)sc3c2)ccn1 ?
**A:** 18.8

###

- test: Selectivity index, ratio of CC50 for human HeLa cells to EC50 for human poliovirus 3 infected in human HeLa cells
- Format: toxicity, cell-based
- settings: read-out: Ratio CC50/EC50
readout type: selectivity ratio
Number only, please.

Worked set:
| smiles text | selectivity ratio |
| --- | --- |
| CNC(=O)c1cc(Oc2ccc3cc(C(=O)OC(C)C)n(C)c3c2)ccn1 | 5.1 |
| CNC(=O)c1cc(Oc2ccc3c(C)c(C(=O)OC(C)C)n(C)c3c2)ccn1 | 120 |

**Q:** GET /values?readout=selectivity ratio&item= CCCOC(=O)c1sc2cc(Oc3ccnc(C(=O)NC)c3)ccc2c1C
**A:** 80

###

- test: Selectivity index, ratio of CC50 for human HeLa cells to EC50 for human poliovirus 3 infected in human HeLa cells
- Format: toxicity, cell-based
- settings: read-out: Ratio CC50/EC50
selectivity ratio values, listed per item
Write no unit; give the number alone.

Below, 4 compounds whose answers are already recorded.
| smiles text | readout type | measured number |
| --- | --- | --- |
| COc1ccc(OCc2ccc(COc3c(Cl)cccc3Cl)cc2)c(Cl)c1 | selectivity ratio | 200 |
| CCOC(=O)c1sc2cc(Oc3cccc(C(=O)NC)c3)ccc2c1C | selectivity ratio | 20 |
| CCOC(=O)c1sc2cc(O)ccc2c1C | selectivity ratio | 5 |
| CNC(=O)c1cc(Oc2ccc3c(C)c(C(=O)OCC(C)C)sc3c2)ccn1 | selectivity ratio | 14 |

**Q:** // query selectivity ratio value for entry CNC(=O)c1cc(Oc2ccc3ccc(C(=O)OC(C)C)cc3c2)ccn1
**A:** 870

**Q:** State the recorded selectivity ratio for this entry: CCOC(=O)c1ccc2cc(Oc3ccnc(C(=O)NC)c3)ccc2c1
**A:** 83

**Q:** Which selectivity ratio value is on record for CNC(=O)c1cc(Oc2ccc3c(C)c(C(=O)OC)sc3c2)ccn1 ?
**A:** 180

###

Here the recorded CC50 at 48 h is given for each entry.
- test: Cytotoxicity aganist human HeLa cells assessed as decrease in cell viability after 2 days by MTT assay
- Format: cell-based

| molecule | CC50 at 48 h |
| --- | --- |
| CCOC(=O)c1sc2cc(Oc3ccnc(C(=O)NC)c3)ccc2c1C | > 100 µM |
| CNC(=O)c1cc(Oc2ccc3c(C)c(C(=O)OC)sc3c2)ccn1 | 15.7 µM |
| CNC(=O)c1cc(Oc2ccc3cc(C(=O)OC(C)C)sc3c2)ccn1 | 45 µM |
| CCOC(=O)c1cc2ccc(Oc3ccnc(C(=O)NC)c3)cc2o1 | > 100 µM |
| CCC(C)OC(=O)c1ccc2ccc(Oc3ccnc(C(=O)NC)c3)cc2c1 (stereo unspecified) | 9 µM |
| CCCOC(=O)c1sc2cc(Oc3ccnc(C(=O)NC)c3)ccc2c1C | 57.1 µM |

**Q:** Query: CC50 at 48 h; subject: CCOC(=O)c1sc2cc(Oc3ccnc(C(=O)OC)c3)ccc2c1C
**A:** 26.2 µM

**Q:** What does the data say about its CC50 at 48 h? Entry: CCOC(=O)c1cc2cc(Oc3ccnc(C(=O)NC)c3)ccc2cc1O
**A:** > 100 µM

**Q:** Which CC50 at 48 h is listed for CCOC(=O)c1cc2ccc(O)cc2s1 ?
**A:** 46.9 µM

**Q:** Quick one: CC50 at 48 h of CCOC(=O)c1cc2ccc(Oc3ccnc(C(=O)NC)c3)c(Cl)c2s1 ?
**A:** > 100 µM

**Q:** Can you look up the measured CC50 at 48 h of CNC(=O)c1cc(Oc2ccc3c(C)c(C(=O)O)sc3c2)ccn1 for me?
**A:** > 100 µM

###

- test: Selectivity index, ratio of CC50 for human H1HeLa cells to EC50 for Human rhinovirus A71 infected in human H1HeLa cells
- Format: toxicity, cell-based
- settings: read-out: Ratio CC50/EC50
readout type: selectivity ratio
I'd appreciate a reply containing only the number, no unit.

| molecule | selectivity ratio |
| --- | --- |
| CCOC(=O)c1sc2cc(Oc3ccnc(C(=O)NC)c3)ccc2c1C | 150 |
| CCOC(=O)c1cc2ccc(Oc3ccncc3)cc2s1 | 5.8 |
| CCOC(=O)c1sc2cc(Oc3ccnc(C(=O)OC)c3)ccc2c1C | 1.7 |
| CNC(=O)c1cc(Oc2ccc3ccc(C(=O)OC)cc3c2)ccn1 | 33 |
| CCCOC(=O)c1sc2cc(Oc3ccnc(C(=O)NC)c3)ccc2c1C | 580 |

**Q:** Give the measured selectivity ratio of CCOC(=O)c1ccc2ccc(Oc3ccnc(C(=O)NC)c3)cc2c1 .
**A:** 430

**Q:** Consider the molecule CNC(=O)c1cc(Oc2ccc3cc(C(=O)OC(C)C)n(C)c3c2)ccn1 and give its measured selectivity ratio.
**A:** 1500

###

- test: Selectivity index, ratio of CC50 for human HeLa cells to EC50 for human poliovirus 3 infected in human HeLa cells
- Format: toxicity, cell-based
- settings: read-out: Ratio CC50/EC50
Rule: measured selectivity ratio below 20 gets fulfilled; anything equal to or greater than 20 gets not fulfilled.

Consider the worked cases shown below.
| molecule | answer label |
| --- | --- |
| CCC(C)OC(=O)c1ccc2ccc(Oc3ccnc(C(=O)NC)c3)cc2c1 (stereo unspecified) | not fulfilled |
| Cc1cc(CCCOc2c(C)cc(-c3noc(C(F)(F)F)n3)cc2C)on1 | fulfilled |
| CNC(=O)c1cc(Oc2ccc3ccc(C(=O)OC)cc3c2)ccn1 | not fulfilled |
| CNC(=O)c1cc(Oc2ccc3c(C)c(C(=O)OCc4ccccc4)sc3c2)ccn1 | not fulfilled |
| CCOC(=O)c1ccc2ccc(Oc3ccnc(C(=O)NC)c3)cc2c1 | not fulfilled |
| CNC(=O)c1cc(Oc2ccc3cc(C(=O)OC(C)C)sc3c2)ccn1 | fulfilled |

**Q:** API: query returns whether the molecule falls strictly under 20 in selectivity ratio. Query: CNC(=O)c1cc(Oc2ccc3c(C)c(C(=O)OC(C)C)sc3c2)ccn1
**A:** not fulfilled

**Q:** Does CCOC(=O)c1cc2ccc(OC)cc2s1 have selectivity ratio strictly under 20?
**A:** fulfilled

**Q:** Please check: selectivity ratio for CNC(=O)c1cc(Oc2ccc3c(C)c(C(=O)OC(C)C)[nH]c3c2)ccn1 , strictly under 20 or not?
**A:** not fulfilled

###

- test: Selectivity index, ratio of CC50 for human H1HeLa cells to EC50 for Human rhinovirus A21 infected in human H1HeLa cells
- Format: toxicity, cell-based
- settings: read-out: Ratio CC50/EC50
Recorded selectivity ratio, one value per entry.
Respond with the number and no other words.

Record excerpt, results attached:
| smiles text | selectivity ratio |
| --- | --- |
| CNC(=O)c1cc(Oc2ccc3c(C)c(C(=O)OCc4ccccc4)sc3c2)ccn1 | 34 |
| CCOC(=O)c1ccc2ccc(Oc3ccnc(C(=O)NC)c3)cc2c1 | 77 |
| CNC(=O)c1cc(Oc2ccc3ccc(C(=O)OC)cc3c2)ccn1 | 27 |
| Cc1cc(CCCOc2c(C)cc(-c3noc(C(F)(F)F)n3)cc2C)on1 | 270 |
| CNC(=O)c1cc(Oc2ccc3c(C)c(C(=O)OC(C)C)sc3c2)ccn1 | 230 |

// below: selectivity ratio requested for another molecule
**Q:** May I ask what selectivity ratio has been recorded for CNC(=O)c1cc(Oc2ccc3cc(C(=O)OC(C)C)sc3c2)ccn1 ?
**A:** 31

###

- System: Poliovirus 3
- test: Antiviral activity against Human poliovirus 3 infected in human HeLa cells assessed as protection against virus induced cytopathic effect after 2 days by MTT assay
- Type: functional, cell-based
- settings: Enterovirus C, 48 h
Recorded EC50 split into classes bottom: < 80 nM; middle: ≥ 80 nM and < 400 nM; top: ≥ 400 nM

| compound | answer label |
| --- | --- |
| CNC(=O)c1cc(Oc2ccc3c(C)c(C(=O)OC(C)C)n(C)c3c2)ccn1 | bottom |
| CCOC(=O)c1cc2ccc(Oc3ccncc3)cc2s1 | top |
| CCOC(=O)c1cc2ccc(Oc3ccccc3)cc2s1 | top |

**Q:** In plain terms, what class is CNC(=O)c1cc(Oc2ccc3cc(C(=O)OC(C)C)n(C)c3c2)ccn1 ?
**A:** top

**Q:** Pick a category. Item: CCOC(=O)c1sc2cc(Oc3cccc(C(=O)NC)c3)ccc2c1C
**A:** middle

**Q:** Kindly state the category for this compound: CNC(=O)c1cc(Oc2ccc3c(C)c(C(=O)OCc4ccccc4)sc3c2)ccn1
**A:** middle
